System: M. gallisepticum S6
ASSAY_NOTES: Mycoplasma susceptibility testing (MIC)
Format: cell-based
TEST_PARAMETERS: Mycoplasmoides gallisepticum

| MOLECULE | MIC |
| --- | --- |
| CC[C@H]1OC(=O)C[C@@H](O)[C@H](C)[C@@H](O[C@@H]2O[C@H](C)[C@@H](O)[C@H](N(C)C)[C@H]2O)[C@@H](CCN2CC(C)CC(C)C2)C[C@@H](C)C(=O)/C=C/C(C)=C/[C@@H]1CN(C)Cc1cccnc1 (some centres unmarked) [Compound 8b] | 3.91 µg/mL |
| CC[C@H]1OC(=O)C[C@@H](O)[C@H](C)[C@@H](O[C@@H]2O[C@H](C)[C@@H](O)[C@H](N(C)C)[C@H]2O)[C@@H](CCN2CCCCC2)C[C@@H](C)C(=O)/C=C/C(C)=C/[C@@H]1CN1CCCCC1 [Zuprevo, reference compound] | < 0.12 µg/mL |
| CC[C@H]1OC(=O)C[C@@H](O)[C@H](C)[C@@H](O[C@@H]2O[C@H](C)[C@@H](O)[C@H](N(C)C)[C@H]2O)[C@@H](CCN2CCCCC2)C[C@@H](C)C(=O)/C=C/C(C)=C/[C@@H]1CN(CC)CC [Compound 4a] | < 0.12 µg/mL |
| CC[C@H]1OC(=O)C[C@@H](O)[C@H](C)[C@@H](O[C@@H]2O[C@H](C)[C@@H](O)[C@H](N(C)C)[C@H]2O)[C@@H](CCN2Cc3ccccc3C2)C[C@@H](C)C(=O)/C=C/C(C)=C/[C@@H]1CN1CC(C)CC(C)C1 (some centres unmarked) [Compound 12d] | < 0.12 µg/mL |
| CC[C@H]1OC(=O)C[C@@H](O)[C@H](C)[C@@H](O[C@@H]2O[C@H](C)[C@@H](O)[C@H](N(C)C)[C@H]2O)[C@@H](CCN2Cc3ccccc3C2)C[C@@H](C)C(=O)/C=C/C(C)=C/[C@@H]1CN(C)Cc1ccccc1 [Compound 12a] | < 0.12 µg/mL |
| CC[C@H]1OC(=O)C[C@@H](O)[C@H](C)[C@@H](O[C@@H]2O[C@H](C)[C@@H](O[C@H]3C[C@@](C)(O)[C@@H](O)[C@H](C)O3)[C@H](N(C)C)[C@H]2O)[C@@H](CC=O)C[C@@H](C)C(=O)/C=C/C(C)=C/[C@@H]1CO[C@@H]1O[C@H](C)[C@@H](O)[C@@H](OC)[C@H]1OC [Tylosin, reference compound] | < 0.12 µg/mL |
| CC[C@H]1OC(=O)C[C@@H](O)[C@H](C)[C@@H](O[C@@H]2O[C@H](C)[C@@H](O)[C@H](N(C)C)[C@H]2O)[C@@H](CCN2CC(C)CC(C)C2)C[C@@H](C)C(=O)/C=C/C(C)=C/[C@@H]1CN1Cc2ccccc2C1 (some centres unmarked) [Compound 8c] | 15.6 µg/mL |
| CC[C@H]1OC(=O)C[C@@H](O)[C@H](C)[C@@H](O[C@@H]2O[C@H](C)[C@@H](O)[C@H](N(C)C)[C@H]2O)[C@@H](CCN2CCCCC2)C[C@@H](C)C(=O)/C=C/C(C)=C/[C@@H]1CN(C)Cc1ccccc1 [Compound 4f] | 0.24 µg/mL |

###

Each record here notes measured MIC.
System: salmonella LD4-8
ASSAY_NOTES: Antibacterial MIC, agar-dilution or broth-dilution microtiter test
Assay type: cell-based
TEST_PARAMETERS: LD48; Strain I: salmonella LD4-8
OBSERVABLE: MIC

| COMPOUND | READOUT_VALUE |
| --- | --- |
| CC[C@H]1OC(=O)C[C@@H](O)[C@H](C)[C@@H](O[C@@H]2O[C@H](C)[C@@H](O)[C@H](N(C)C)[C@H]2O)[C@@H](CCN2CCCCC2)C[C@@H](C)C(=O)/C=C/C(C)=C/[C@@H]1CNCc1ccccc1 | > 256 µg/mL |
| CC[C@H]1OC(=O)C[C@@H](O)[C@H](C)[C@@H](O[C@@H]2O[C@H](C)[C@@H](O)[C@H](N(C)C)[C@H]2O)[C@@H](CCN2CCCCC2)C[C@@H](C)C(=O)/C=C/C(C)=C/[C@@H]1CN1CCCC1 | > 256 µg/mL |
| CC[C@H]1OC(=O)C[C@@H](O)[C@H](C)[C@@H](O[C@@H]2O[C@H](C)[C@@H](O[C@H]3C[C@@](C)(O)[C@@H](O)[C@H](C)O3)[C@H](N(C)C)[C@H]2O)[C@@H](CC=O)C[C@@H](C)C(=O)/C=C/C(C)=C/[C@@H]1CO[C@@H]1O[C@H](C)[C@@H](O)[C@@H](OC)[C@H]1OC [Tylosin, reference compound] | > 256 µg/mL |
